Test: PK study in SD rats
Type: in vivo
Conditions: male, Sprague-Dawley, plasma, iv; SD rat, 1.0 mg/kg i.v.
Assay metric: Tmax (min)

[[record]]
entry_smiles = "Cc1cc(-c2ccc(C#N)cc2)cc(C)c1Nc1nc(Nc2ccc(C#N)cc2)ncc1F"
observed_measurement = 5


---

Target protein (sequence): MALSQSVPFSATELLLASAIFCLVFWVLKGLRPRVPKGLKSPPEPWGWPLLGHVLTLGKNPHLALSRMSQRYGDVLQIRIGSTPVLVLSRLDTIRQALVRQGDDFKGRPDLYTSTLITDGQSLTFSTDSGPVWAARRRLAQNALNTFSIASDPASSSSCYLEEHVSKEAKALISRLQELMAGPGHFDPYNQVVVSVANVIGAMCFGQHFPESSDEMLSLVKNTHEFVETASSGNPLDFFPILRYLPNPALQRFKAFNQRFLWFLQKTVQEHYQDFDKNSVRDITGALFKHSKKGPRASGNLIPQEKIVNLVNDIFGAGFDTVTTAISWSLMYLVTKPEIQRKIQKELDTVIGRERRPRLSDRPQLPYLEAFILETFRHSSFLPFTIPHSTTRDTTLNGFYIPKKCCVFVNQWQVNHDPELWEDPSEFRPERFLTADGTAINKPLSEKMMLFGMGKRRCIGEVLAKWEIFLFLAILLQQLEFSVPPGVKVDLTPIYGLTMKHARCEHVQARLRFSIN
Assay metric: IC50

[[record]]
entry_smiles = "Cc1cc(-c2ccc(C#N)cc2)cc(C)c1Nc1nc(Nc2ccc(C#N)cc2)ncc1F"
assay_metric = "IC50"
observed_measurement = "> 25 µM"


---

Test: PK study in SD rats
Assay type: in vivo
Conditions: male, Sprague-Dawley, plasma, iv; SD rat, 1.0 mg/kg i.v.; read-out: MRT0–∞
Assay metric: MRT inf (h)

[[record]]
entry_smiles = "Cc1cc(-c2ccc(C#N)cc2)cc(C)c1Nc1nc(Nc2ccc(C#N)cc2)ncc1F"
assay_metric = "MRT inf"
observed_measurement = 3.89


---

Assay: Plasma protein binding assay (equilibrium dialysis)
Type: in vitro ADME
Settings: rat plasma, dialysis 37 °C, read-out: plasma protein binding rate (%PPB) (converted)
Assay metric: fraction unbound at 6 h, 1 μmol/L

[[record]]
compound = "Cc1cc(-c2ccc(C#N)cc2)cc(C)c1Nc1nc(Nc2ccc(C#N)cc2)ncc1F [A12]"
observed_measurement = 0.005


---

System: HIV-1 Y188L
Experiment: Antiviral activity against HIV-1 mutant Y188L in MT-4 cells
Type: cell-based
Settings: Human immunodeficiency virus 1, MT4, read-out: EC50 Y188L
pEC50: −log10 of the molar value.
Use 1 when the recorded pEC50 is no lower than 7; use -1 when it is lower.

[[record]]
compound = "N#Cc1ccc(Nc2ncc(F)c(Nc3ccc(-c4ccc(C#N)cc4)cc3F)n2)cc1"
assigned_category = -1

[[record]]
compound = "Cc1cc(-c2ccc(C#N)cc2)ccc1Nc1nc(Nc2ccc(C#N)cc2)ncc1F"
assigned_category = -1

[[record]]
compound = "N#Cc1ccc(Nc2ncc(F)c(Nc3c(F)cc(-c4ccc(C#N)cc4)cc3F)n2)cc1"
assigned_category = -1

[[record]]
compound = "N#Cc1ccc(Nc2ncc(Cl)c(Nc3c(F)cc(-c4ccc(C#N)cc4)cc3F)n2)cc1"
assigned_category = -1

[[record]]
compound = "Cc1cnc(Nc2ccc(C#N)cc2)nc1Nc1c(F)cc(-c2ccc(C#N)cc2)cc1F [compound 6, reference compound]"
assigned_category = -1

[[record]]
compound = "COc1cc(-c2ccncc2)ccc1Oc1nc(Nc2ccc(C#N)cc2)ncc1F"
assigned_category = -1

[[record]]
compound = "N#Cc1ccc(Nc2ncc(F)c(Oc3ccc(-c4ccc(C#N)cc4)cc3F)n2)cc1"
assigned_category = -1

[[record]]
compound = "Cc1cc(-c2ccc(C#N)cc2)cc(C)c1Nc1nc(Nc2ccc(C#N)cc2)ncc1Cl"
assigned_category = 1

[[record]]
compound = "COc1cc(-c2ccc(C#N)cc2)ccc1Oc1nc(Nc2ccc(C#N)cc2)ncc1F"
assigned_category = -1

[[record]]
compound = "Cc1cc(-c2ccc(C#N)cc2)cc(C)c1Nc1nc(Nc2ccc(C#N)cc2)ncc1F"
assigned_category = 1

